Measured Plant response rating, Nightshade of individual entries
Tested on: nightshade (eastern black nightshade, Solanum ptycanthum)
method: Test B preemergence, nightshade
Format: in vivo
setup_conditions: 125 g ai/ha, scale 0 to 100
I only need the number, thanks.

Please review the following examples before continuing.
CC1(C)CC(S(=O)(=O)Cc2c(C(F)(F)Cl)nc3n(c2=O)CCC3)=NO1 :: 95
CC1(C)CC(S(=O)(=O)Cc2c(C(F)(F)F)nc3ccsn3c2=O)=NO1 :: 95
CC1(C)CC(S(=O)(=O)Cc2c(C(F)(F)C(F)(F)F)nc3n(c2=O)CCC3)=NO1 :: 100
CC1(C)CC(S(=O)(=O)Cc2c(C(F)(F)F)nc3n(c2=O)CCS3)=NO1 :: 98
CC1(C)CC(S(=O)(=O)Cc2c(C(F)(F)C(F)(F)F)nc3n(c2=O)CCCC3)=NO1 :: 90

// Plant response rating, Nightshade lookup, compound = CC1(C)CC(S(=O)(=O)Cc2c(C(F)(F)F)nc3n(c2=O)CCC3)=NO1 , result: 98

For this compound ( CC1(C)CC(S(=O)(=O)Cc2c(C(F)(F)F)nc3n(c2=O)CCCC3)=NO1 ), measured Plant response rating, Nightshade is 98

###

Tested on: johnsongrass (Sorghum halepense)
method: Test B preemergence, johnsongrass
Format: in vivo
setup_conditions: 125 g ai/ha, scale 0 to 100
Reported Plant response rating, Johnsongrass values are given for each entry in this list.
Answer field: number only, no words.

Field Plant response rating, Johnsongrass (johnsongrass (Sorghum halepense)), entry CC1(C)CC(S(=O)(=O)Cc2c(C(F)(F)F)nc3n(c2=O)CCC3)=NO1 [Compound 11] : 90

// molecule CC1(C)CC(S(=O)(=O)Cc2c(C(F)(F)C(F)(F)F)nc3n(c2=O)CCC3)=NO1 [Compound 22] , assay johnsongrass (Sorghum halepense), Plant response rating, Johnsongrass value: 98

I looked up CC1(C)CC(S(=O)(=O)Cc2c(C(F)(F)F)nc3n(c2=O)CCS3)=NO1 [Compound 6] and its Plant response rating, Johnsongrass for johnsongrass (Sorghum halepense) was 100

Value (Plant response rating, Johnsongrass, johnsongrass (Sorghum halepense)) for record CC1(C)CC(S(=O)(=O)Cc2c(C(F)(F)Cl)nc3n(c2=O)CCC3)=NO1 [Compound 18] = 85

###

Tested on: barnyardgrass (Echinochloa crus-galli)
method: Test A postemergence, barnyardgrass
Type: in vivo
setup_conditions: 125 g ai/ha, 0 to 100 scale (0 no effect, 100 complete control)
Reported Plant response rating, Barnyardgrass values follow for various compounds
// no unit string in output, number only

CC1(C)CC([S+]([O-])Cc2c(C(F)(F)C(F)(F)F)nc3n(c2=O)CCS3)=NO1 (centres unmarked) :: 30
CC1(C)CC(S(=O)(=O)Cc2c(C(F)(F)F)nc3ccccn3c2=O)=NO1 :: 80
CC1(C)CC(S(=O)(=O)Cc2c(C(F)(F)F)nc3cccnn3c2=O)=NO1 :: 30

For reference, reported Plant response rating, Barnyardgrass for CC1(C)CC([S+]([O-])Cc2c(C(F)(F)C(F)(F)F)nc3n(c2=O)CCCC3)=NO1 (centres unmarked) stands at 10

Plant response rating, Barnyardgrass measured on CC1(C)CC(S(=O)(=O)Cc2c(C(F)(F)F)nc3ccon3c2=O)=NO1 = 70

###

Reported values of Plant response rating, Lambsquarters for individual entries
Tested on: lambsquarters (Chenopodium album)
method: Test B preemergence, lambsquarters
Assay type: in vivo
setup_conditions: 62 g ai/ha, scale 0 to 100
From the text: […]
Could you respond with only the numeric value?

The following compounds have reported results that may help.
CC1(C)CC(S(=O)(=O)Cc2c(C(F)(F)F)nc3ccsn3c2=O)=NO1 :: 0
CC1(C)CC(S(=O)(=O)Cc2c(C(F)(F)Cl)nc3n(c2=O)CCC3)=NO1 :: 75
CC1(C)CC(S(=O)(=O)Cc2c(C(F)(F)C(F)(F)F)nc3n(c2=O)CCC3)=NO1 :: 70
CC1(C)CC(S(=O)(=O)Cc2c(C(F)(F)F)nc3n(c2=O)CCCC3)=NO1 :: 100
CC1(C)CC(S(=O)(=O)Cc2c(C(F)(F)F)nc3n(c2=O)CCC3)=NO1 :: 0
CC1(C)CC(S(=O)(=O)Cc2c(C(F)(F)F)nc3n(c2=O)CCO3)=NO1 :: 0

Summary for this compound, CC1(C)CC(S(=O)(=O)Cc2c(C(F)(F)C(F)(F)F)nc3n(c2=O)CCCC3)=NO1 : Plant response rating, Lambsquarters is 0

According to the records, this compound CC1(C)CC(S(=O)(=O)Cc2c(C(F)(F)F)nc3n(c2=O)CCS3)=NO1 displays Plant response rating, Lambsquarters of 90

###

Catalogue of Plant response rating, Foxtail, Green values
System: green foxtail (Setaria viridis)
method: Test B preemergence, green foxtail
Format: in vivo
setup_conditions: 16 g ai/ha, scale 0 to 100
Give a plain numeric answer without units written out.

Past entries and their recorded results:
CC1(C)CC(S(=O)(=O)Cc2c(C(F)(F)F)nc3n(c2=O)CCCC3)=NO1 :: 70
CC1(C)CC(S(=O)(=O)Cc2c(C(F)(F)F)nc3n(c2=O)CCO3)=NO1 :: 10
CC1(C)CC(S(=O)(=O)Cc2c(C(F)(F)F)nc3n(c2=O)CCC3)=NO1 :: 20

// below: Plant response rating, Foxtail, Green requested for another compound
// recorded Plant response rating, Foxtail, Green for CC1(C)CC(S(=O)(=O)Cc2c(C(F)(F)F)nc3n(c2=O)CCS3)=NO1 : 50

###

Known Plant response rating, Foxtail, Green of a selection of compounds
Tested on: green foxtail (Setaria viridis)
method: Test B preemergence, green foxtail
Type: in vivo
setup_conditions: 62 g ai/ha, scale 0 to 100
I only need the number, thanks.

Recorded results for 6 compounds are shown here.
CC1(C)CC(S(=O)(=O)Cc2c(C(F)(F)C(F)(F)F)nc3n(c2=O)CCC3)=NO1 :: 100
CC1(C)CC(S(=O)(=O)Cc2c(C(F)(F)F)nc3n(c2=O)CCO3)=NO1 :: 85
CC1(C)CC(S(=O)(=O)Cc2c(C(F)(F)F)nc3n(c2=O)CCS3)=NO1 :: 50
CC1(C)CC(S(=O)(=O)Cc2c(C(F)(F)F)nc3n(c2=O)CCC3)=NO1 :: 100
CC1(C)CC(S(=O)(=O)Cc2c(C(F)(F)F)nc3ccsn3c2=O)=NO1 :: 85
CC1(C)CC(S(=O)(=O)Cc2c(C(F)(F)C(F)(F)F)nc3n(c2=O)CCCC3)=NO1 :: 100

Form field Plant response rating, Foxtail, Green, entry CC1(C)CC(S(=O)(=O)Cc2c(C(F)(F)Cl)nc3n(c2=O)CCC3)=NO1 : 98

Lab book: Plant response rating, Foxtail, Green of CC1(C)CC(S(=O)(=O)Cc2c(C(F)(F)F)nc3n(c2=O)CCCC3)=NO1 noted as 98

###

Tested on: bermudagrass (Cynodon dactylon)
method: Test B preemergence, bermudagrass
Format: in vivo
setup_conditions: 31 g ai/ha, scale 0 to 100
measured_endpoint: Plant response rating, Bermudagrass
Please give the numeric answer without any surrounding text.

Would you please look over these solved cases?
CC1(C)CC(S(=O)(=O)Cc2c(C(F)(F)F)nc3n(c2=O)CCS3)=NO1 [Compound 6] :: 100
CC1(C)CC(S(=O)(=O)Cc2c(C(F)(F)F)nc3n(c2=O)CCO3)=NO1 [Compound 2] :: 75
CC1(C)CC(S(=O)(=O)Cc2c(C(F)(F)C(F)(F)F)nc3n(c2=O)CCC3)=NO1 [Compound 22] :: 100

Consider CC1(C)CC(S(=O)(=O)Cc2c(C(F)(F)Cl)nc3n(c2=O)CCC3)=NO1 [Compound 18] . Its measured Plant response rating, Bermudagrass is 98

###

# Plant response rating, Velvetleaf annotations
System: velvetleaf (Abutilon theophrasti)
method: Test A preemergence, velvetleaf
Format: in vivo
setup_conditions: 125 g ai/ha, 0 to 100 scale (0 no effect, 100 complete control)

# annotated cases, reported Plant response rating, Velvetleaf shown
CC1(C)CC(S(=O)(=O)Cc2c(C(F)(F)F)nc3n(c2=O)CCCCC3)=NO1 :: 30
CCn1c(=O)c(CS(=O)(=O)C2=NOC(C)(C)C2)nc2ccccc21 :: 0
CCn1c(=O)c(C[S+]([O-])C2=NOC(C)(C)C2)nc2cccnc21 (centres unmarked) :: 0

// recorded Plant response rating, Velvetleaf for CC1(C)CC([S+]([O-])Cc2c(C(F)(F)C(F)(F)F)nc3n(c2=O)CCCC3)=NO1 (centres unmarked) : 0

Short answer for CC1(C)CC(S(=O)(=O)Cc2c(C(F)(F)Cl)nc3n(c2=O)CCCC3)=NO1 : Plant response rating, Velvetleaf was 40

Quick note, Plant response rating, Velvetleaf for CC1(C)CC(S(=O)(=O)Cc2c(C(F)(F)C(F)(F)F)nc3n(c2=O)CCCO3)=NO1 landed at 0

// recorded Plant response rating, Velvetleaf for CCn1c(=O)c(C[S+]([O-])C2=NOC(C)(C)C2)nc2ccccc21 (centres unmarked) : 0

Value of measured Plant response rating, Velvetleaf for the entry CC1(C)CC([S+]([O-])Cc2c(C(F)(F)F)nc3n(c2=O)CCCCC3)=NO1 (centres unmarked) : 0
